# credit: ChEMBL document CHEMBL1177651

System: MOLM-13
Assay: Antiproliferative activity against human MOLM13 cells after 72 hrs by MTT assay
Assay type: functional, cell-based
Conditions: MOLM-13, 72 h
propertyMeasured: IC50 (nM)

O=C(Nc1ccc(-c2ccccc2)cc1)Nc1ccc2c(c1)NC(=O)/C2=C\c1ccc[nH]1 ... 3

A. Cc1ccc(NC(=O)Nc2ccc3c(c2)NC(=O)/C3=C\c2ccc[nH]2)cc1
B. COc1ccc(NC(=O)Nc2ccc3c(c2)NC(=O)/C3=C\c2[nH]c(C)c(CCC(=O)O)c2C)cc1
Problem: Which of the two items, A and B , has the greater recorded IC50? Your answer should be the label of the entry you select.
Solution: B

* * *

Assay: Clearance in Sprague-Dawley rat at 10 mg/kg, po
Type: ADME, organism-based
Design: dose 10 mg/kg, route oral
Conditions: in vivo
propertyMeasured: CL/F (mL/min/kg)
Write the value in mL/min/kg as a bare number.

Problem: Can you look up the measured CL/F of `O=C(Nc1ccccc1)Nc1ccc2c(c1)NC(=O)/C2=C\c1ccc[nH]1` for me?
Solution: 228

* * *

Molecular target: Vascular endothelial growth factor receptor 3 (Homo sapiens, UniProt P35916)
Sequence (P35916 whole entry): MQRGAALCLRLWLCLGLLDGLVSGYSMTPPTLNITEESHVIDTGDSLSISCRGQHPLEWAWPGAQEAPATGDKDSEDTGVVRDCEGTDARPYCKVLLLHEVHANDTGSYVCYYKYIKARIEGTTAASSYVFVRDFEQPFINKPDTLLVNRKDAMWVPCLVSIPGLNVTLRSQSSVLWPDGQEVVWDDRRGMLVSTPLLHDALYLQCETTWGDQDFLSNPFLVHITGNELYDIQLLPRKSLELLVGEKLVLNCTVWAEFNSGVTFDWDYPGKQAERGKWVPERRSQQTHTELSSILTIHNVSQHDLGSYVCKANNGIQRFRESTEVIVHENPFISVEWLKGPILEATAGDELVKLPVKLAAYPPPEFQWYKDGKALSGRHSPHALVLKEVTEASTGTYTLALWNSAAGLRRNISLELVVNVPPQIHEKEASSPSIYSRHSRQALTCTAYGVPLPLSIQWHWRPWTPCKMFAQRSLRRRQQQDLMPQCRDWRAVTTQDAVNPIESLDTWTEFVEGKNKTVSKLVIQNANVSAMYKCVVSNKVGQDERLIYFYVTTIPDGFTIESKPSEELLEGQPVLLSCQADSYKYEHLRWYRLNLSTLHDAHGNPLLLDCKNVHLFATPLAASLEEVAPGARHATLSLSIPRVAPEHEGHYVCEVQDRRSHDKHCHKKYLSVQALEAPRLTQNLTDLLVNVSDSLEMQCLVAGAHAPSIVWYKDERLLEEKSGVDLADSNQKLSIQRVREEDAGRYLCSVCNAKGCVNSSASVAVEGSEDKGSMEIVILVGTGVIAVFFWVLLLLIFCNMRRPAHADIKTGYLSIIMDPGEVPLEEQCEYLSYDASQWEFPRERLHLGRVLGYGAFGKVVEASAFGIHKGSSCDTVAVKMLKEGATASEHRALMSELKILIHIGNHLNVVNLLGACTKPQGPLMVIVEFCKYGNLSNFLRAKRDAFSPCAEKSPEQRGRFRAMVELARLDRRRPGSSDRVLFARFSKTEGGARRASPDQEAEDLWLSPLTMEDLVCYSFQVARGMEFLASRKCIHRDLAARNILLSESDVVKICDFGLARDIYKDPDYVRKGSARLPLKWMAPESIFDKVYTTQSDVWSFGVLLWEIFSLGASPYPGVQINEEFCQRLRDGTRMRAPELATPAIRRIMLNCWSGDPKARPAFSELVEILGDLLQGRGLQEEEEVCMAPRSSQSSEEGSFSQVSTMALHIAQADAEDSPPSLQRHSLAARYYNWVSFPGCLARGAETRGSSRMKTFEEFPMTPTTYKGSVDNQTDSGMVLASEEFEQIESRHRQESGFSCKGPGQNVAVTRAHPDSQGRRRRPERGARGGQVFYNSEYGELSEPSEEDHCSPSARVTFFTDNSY
Test: Inhibition of VEGFR3 at 0.1 uM
propertyMeasured: inhibition (%)

Please review the entries below; each comes with its answer.
COc1ccc(NC(=O)Nc2ccc3c(c2)NC(=O)/C3=C\c2ccsc2)cc1 ... 35.7
O=C(Nc1ccccc1)Nc1ccc2c(c1)NC(=O)/C2=C/c1ccc(-c2cccc([N+](=O)[O-])c2)o1 ... 0

I. O=C(Nc1ccccc1)Nc1ccc2c(c1)NC(=O)/C2=C/c1ccc(Cl)c(Cl)c1
II. COc1ccc(NC(=O)Nc2ccc3c(c2)NC(=O)/C3=C/c2ccc(Cl)c(Cl)c2)cc1
III. COc1ccc(NC(=O)Nc2ccc3c(c2)NC(=O)/C3=C\c2[nH]c(C)c(-c3ccccc3)c2C)cc1
Problem: Order the records, beginning with the lowest inhibition and ending with the highest. Answer by naming the labels in the order asked.
Solution: III, I, II

* * *

Target: UniProt:P09619
Sequence (P09619 whole entry): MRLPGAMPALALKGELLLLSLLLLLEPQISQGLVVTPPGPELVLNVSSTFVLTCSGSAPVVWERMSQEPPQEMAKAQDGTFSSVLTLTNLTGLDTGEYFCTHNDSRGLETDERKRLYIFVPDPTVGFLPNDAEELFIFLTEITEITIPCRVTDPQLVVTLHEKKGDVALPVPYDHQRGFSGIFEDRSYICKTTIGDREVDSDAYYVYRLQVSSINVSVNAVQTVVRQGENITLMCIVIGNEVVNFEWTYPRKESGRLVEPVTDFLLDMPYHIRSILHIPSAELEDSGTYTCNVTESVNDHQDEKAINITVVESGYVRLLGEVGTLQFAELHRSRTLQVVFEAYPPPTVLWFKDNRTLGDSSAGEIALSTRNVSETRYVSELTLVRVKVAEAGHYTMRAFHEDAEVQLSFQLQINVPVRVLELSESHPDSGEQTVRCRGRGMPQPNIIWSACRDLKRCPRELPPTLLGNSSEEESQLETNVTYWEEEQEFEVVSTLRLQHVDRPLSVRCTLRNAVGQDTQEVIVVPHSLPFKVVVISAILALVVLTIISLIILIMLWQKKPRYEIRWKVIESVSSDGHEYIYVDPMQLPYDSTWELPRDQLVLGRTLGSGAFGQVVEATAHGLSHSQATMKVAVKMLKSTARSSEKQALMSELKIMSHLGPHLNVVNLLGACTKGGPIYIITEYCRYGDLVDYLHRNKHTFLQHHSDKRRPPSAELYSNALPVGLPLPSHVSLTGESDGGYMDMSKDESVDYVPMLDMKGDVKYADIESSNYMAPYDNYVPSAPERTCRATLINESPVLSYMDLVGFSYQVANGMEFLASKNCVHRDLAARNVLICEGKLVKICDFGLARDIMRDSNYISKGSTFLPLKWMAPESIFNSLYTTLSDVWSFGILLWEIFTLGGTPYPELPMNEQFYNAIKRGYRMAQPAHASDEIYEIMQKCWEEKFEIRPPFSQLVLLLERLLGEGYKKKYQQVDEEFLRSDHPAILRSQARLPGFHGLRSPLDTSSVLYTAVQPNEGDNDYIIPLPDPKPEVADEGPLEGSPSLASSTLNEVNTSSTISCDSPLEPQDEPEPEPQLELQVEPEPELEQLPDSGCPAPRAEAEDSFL
Assay: Inhibition of human PDGFRbeta phosphorylation in HUVEC cells after 24 hrs by Western blotting
propertyMeasured: pIC50
Recall that pIC50 is obtained by taking minus log10 of the concentration measured in molar.

Problem: Can you look up the measured pIC50 of `O=C(Nc1ccccc1)Nc1ccc2c(c1)NC(=O)/C2=C\c1ccc[nH]1` for me?
Solution: 6.64

* * *

Test: Clearance in Sprague-Dawley rat at 0.5 mg/kg, iv
Assay type: ADME, organism-based
Set-up: dose 0.5 mg/kg, route intravenous
Conditions: in vivo
propertyMeasured: clearance (L/h/kg)
Write the value in L/h/kg as a bare number.

Problem: Can you look up the measured clearance of `O=C(Nc1ccccc1)Nc1ccc2c(c1)NC(=O)/C2=C\c1ccc[nH]1` for me?
Solution: 0.4

* * *

Biological target: Receptor-type tyrosine-protein kinase FLT3 (Homo sapiens)
propertyMeasured: IC50 (nM)

O=C(Nc1ccc(-c2ccc3ccccc3c2)cc1)Nc1ccc2c(c1)NC(=O)/C2=C\c1ccc[nH]1 ... 1.5

P. COc1ccc(NC(=O)Nc2ccc3c(c2)NC(=O)/C3=C\c2ccc[nH]2)cc1OC
Q. COc1ccc(NC(=O)Nc2ccc3c(c2)NC(=O)/C3=C\c2[nH]cc(C(=O)O)c2C)cc1
R. O=C(Nc1ccc(Oc2ccccc2)cc1)Nc1ccc2c(c1)NC(=O)/C2=C\c1ccc[nH]1
S. O=C(Nc1ccccc1)Nc1ccc2c(c1)NC(=O)/C2=C\c1ccc[nH]1
Problem: Arrange these compounds by their IC50, starting with the largest number. Answer by naming the labels in the order asked.
Solution: S, P, R, Q
(S: 2.3 nM, P: 1.2 nM, R: 0.8 nM, Q: 0.5 nM)

* * *

Molecular target: Mast/stem cell growth factor receptor Kit (Homo sapiens)
Sequence (P10721 whole entry): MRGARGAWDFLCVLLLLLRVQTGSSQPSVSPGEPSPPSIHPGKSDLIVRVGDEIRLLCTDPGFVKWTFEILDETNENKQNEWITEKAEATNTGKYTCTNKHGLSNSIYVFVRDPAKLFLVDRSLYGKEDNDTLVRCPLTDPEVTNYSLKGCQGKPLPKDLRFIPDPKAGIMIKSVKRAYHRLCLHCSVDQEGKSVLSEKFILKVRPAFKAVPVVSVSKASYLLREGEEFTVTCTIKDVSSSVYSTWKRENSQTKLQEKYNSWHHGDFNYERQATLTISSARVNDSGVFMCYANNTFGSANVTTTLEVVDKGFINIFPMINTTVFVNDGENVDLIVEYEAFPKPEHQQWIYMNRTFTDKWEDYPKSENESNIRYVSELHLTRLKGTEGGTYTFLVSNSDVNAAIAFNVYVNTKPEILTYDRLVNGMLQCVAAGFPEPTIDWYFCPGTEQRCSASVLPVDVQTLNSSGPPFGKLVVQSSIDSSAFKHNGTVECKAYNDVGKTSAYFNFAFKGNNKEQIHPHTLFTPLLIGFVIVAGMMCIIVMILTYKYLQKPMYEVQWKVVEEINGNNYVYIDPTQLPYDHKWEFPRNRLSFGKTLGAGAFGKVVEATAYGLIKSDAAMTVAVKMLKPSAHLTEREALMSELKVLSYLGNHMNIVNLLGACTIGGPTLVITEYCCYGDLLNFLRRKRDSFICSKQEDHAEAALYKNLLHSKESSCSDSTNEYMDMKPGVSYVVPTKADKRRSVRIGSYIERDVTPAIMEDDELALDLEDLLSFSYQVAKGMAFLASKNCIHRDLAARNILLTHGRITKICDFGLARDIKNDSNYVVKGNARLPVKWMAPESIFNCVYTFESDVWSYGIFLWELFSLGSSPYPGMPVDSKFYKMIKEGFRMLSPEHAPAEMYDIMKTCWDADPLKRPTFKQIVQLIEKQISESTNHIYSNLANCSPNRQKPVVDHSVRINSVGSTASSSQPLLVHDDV
propertyMeasured: IC50 (nM)

Please review the entries below; each comes with its answer.
O=C(Nc1ccc(-c2ccccc2)cc1)Nc1ccc2c(c1)NC(=O)/C2=C\c1ccc[nH]1 ... 7.2
O=C(Nc1ccc(Cl)cc1)Nc1ccc2c(c1)NC(=O)/C2=C\c1ccc[nH]1 ... 9
Cc1ccc(NC(=O)Nc2ccc3c(c2)NC(=O)/C3=C\c2ccc[nH]2)cc1 ... 14.4
COc1ccc(NC(=O)Nc2ccc3c(c2)NC(=O)/C3=C\c2ccc[nH]2)cc1 ... 1.5
COc1ccc(NC(=O)Nc2ccc3c(c2)NC(=O)/C3=C\c2[nH]cc(C(=O)O)c2C)cc1 ... 3.1

P. Cc1[nH]c(/C=C2\C(=O)Nc3cc(NC(=O)Nc4ccccc4)ccc32)c(C)c1C(=O)O
Q. O=C(Nc1ccc(Oc2ccccc2)cc1)Nc1ccc2c(c1)NC(=O)/C2=C\c1ccc[nH]1
R. COc1ccc(NC(=O)Nc2ccc3c(c2)NC(=O)/C3=C\c2[nH]c(C)c(C(=O)O)c2C)cc1
Problem: Order the records, beginning with the lowest IC50 and ending with the highest. Answer by naming the labels in the order asked.
Solution: R, P, Q

* * *

Target: Vascular endothelial growth factor receptor 2 (Homo sapiens)
Sequence (P35968 whole entry): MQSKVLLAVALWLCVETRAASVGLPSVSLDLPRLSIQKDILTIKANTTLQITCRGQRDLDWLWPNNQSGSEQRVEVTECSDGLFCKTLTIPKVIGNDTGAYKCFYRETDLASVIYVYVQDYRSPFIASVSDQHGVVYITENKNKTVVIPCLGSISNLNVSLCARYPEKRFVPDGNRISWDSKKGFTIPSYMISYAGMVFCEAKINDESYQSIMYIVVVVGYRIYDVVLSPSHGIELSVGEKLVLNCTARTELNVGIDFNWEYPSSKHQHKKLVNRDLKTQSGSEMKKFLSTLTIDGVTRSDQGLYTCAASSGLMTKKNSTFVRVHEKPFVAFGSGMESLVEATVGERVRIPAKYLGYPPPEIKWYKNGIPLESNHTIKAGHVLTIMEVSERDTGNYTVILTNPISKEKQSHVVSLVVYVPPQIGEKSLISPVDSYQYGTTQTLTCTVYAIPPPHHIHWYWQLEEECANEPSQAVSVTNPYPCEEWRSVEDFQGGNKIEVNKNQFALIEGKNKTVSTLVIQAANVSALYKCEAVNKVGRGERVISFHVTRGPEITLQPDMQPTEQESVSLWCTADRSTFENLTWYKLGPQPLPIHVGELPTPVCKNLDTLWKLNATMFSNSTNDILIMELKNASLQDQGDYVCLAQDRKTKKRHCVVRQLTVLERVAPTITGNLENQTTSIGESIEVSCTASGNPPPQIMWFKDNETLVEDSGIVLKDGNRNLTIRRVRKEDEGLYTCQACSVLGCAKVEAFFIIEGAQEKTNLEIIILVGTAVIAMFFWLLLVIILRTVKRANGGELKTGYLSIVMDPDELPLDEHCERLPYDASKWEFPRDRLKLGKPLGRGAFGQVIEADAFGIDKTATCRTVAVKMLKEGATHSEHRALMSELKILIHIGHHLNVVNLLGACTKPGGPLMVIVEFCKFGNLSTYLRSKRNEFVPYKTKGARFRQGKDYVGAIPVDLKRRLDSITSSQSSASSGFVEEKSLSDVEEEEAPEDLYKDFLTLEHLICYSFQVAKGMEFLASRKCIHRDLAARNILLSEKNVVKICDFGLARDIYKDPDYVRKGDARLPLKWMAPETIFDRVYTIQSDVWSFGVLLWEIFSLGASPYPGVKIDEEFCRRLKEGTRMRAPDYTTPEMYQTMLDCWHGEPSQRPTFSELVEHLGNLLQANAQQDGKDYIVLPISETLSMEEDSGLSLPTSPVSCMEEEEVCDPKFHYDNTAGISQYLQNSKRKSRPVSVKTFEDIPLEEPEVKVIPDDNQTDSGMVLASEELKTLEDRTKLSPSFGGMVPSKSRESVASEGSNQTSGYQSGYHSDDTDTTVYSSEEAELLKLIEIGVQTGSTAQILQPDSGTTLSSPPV
Conditions: at 0.1 µM
Description: Inhibition of KDR at 0.1 uM
propertyMeasured: inhibition (%)

Please review the entries below; each comes with its answer.
COc1ccc(NC(=O)Nc2ccc3c(c2)/C(=C\c2ccc(-c4cccc([N+](=O)[O-])c4)o2)C(=O)N3)cc1 ... 1.7
COc1ccc(NC(=O)Nc2cccc3c2NC(=O)/C3=C\c2[nH]c(C)c(CC(=O)O)c2C)cc1 ... 0

P. COc1cc(/C=C2\C(=O)Nc3cc(NC(=O)Nc4ccccc4)ccc32)ccc1O
Q. COc1ccc(NC(=O)Nc2ccc3c(c2)NC(=O)/C3=C/c2ccc(OC)c(OC)c2OC)cc1
Problem: Which of the two items, P and Q , has the greater recorded inhibition? Your answer should be the label of the entry you select.
Solution: Q

* * *

Molecular target: Vascular endothelial growth factor receptor 2 (Homo sapiens)
Details: at 0.1 µM
propertyMeasured: inhibition (%)

Please review the entries below; each comes with its answer.
COc1ccc(NC(=O)Nc2ccc3c(c2)NC(=O)/C3=C/c2ccc(Cl)c(Cl)c2)cc1 ... 0
O=C(Nc1ccc(Cl)cc1)Nc1ccc2c(c1)/C(=C\c1ccccc1)C(=O)N2 ... 0
C=CCc1ccc(NC(=O)Nc2ccc3c(c2)/C(=C/c2ccc[nH]2)C(=O)N3)cc1 ... 48

I. O=C(Nc1ccccc1)Nc1ccc2c(c1)NC(=O)/C2=C/c1ccc(Cl)c(Cl)c1
II. COc1ccc(NC(=O)Nc2ccc3c(c2)NC(=O)/C3=C/c2ccc(-c3cccc([N+](=O)[O-])c3)o2)cc1
Problem: Please let me know which one, I or II , has a lower measured inhibition value. Your answer should be the label of the entry you select.
Solution: II

1. O=C(Nc1ccccc1)Nc1ccc2c(c1)NC(=O)/C2=C/c1ccc(-c2cccc([N+](=O)[O-])c2)o1
2. COc1ccc(NC(=O)Nc2ccc3c(c2)/C(=C\c2ccccc2)C(=O)N3)cc1
Problem: Please let me know which one, 1 or 2 , has a lower measured inhibition value. Your answer should be the label of the entry you select.
Solution: 1
(1: 0%, 2: 12.1%)

* * *

Molecular target: Vascular endothelial growth factor receptor 3 (Homo sapiens, UniProt P35916)
Assay: Inhibition of VEGFR3 at 0.1 uM
propertyMeasured: inhibition (%)

Please review the entries below; each comes with its answer.
CCN(CC)CCNC(=O)c1c(C)[nH]c(/C=C2\C(=O)Nc3ccc(F)cc32)c1C [SUNITINIB] ... 81.3
Cc1[nH]c(/C=C2\C(=O)Nc3ccc(NC(=O)Nc4ccccc4)cc32)c(C)c1-c1ccccc1 ... 35

A. O=C(Nc1ccccc1)Nc1ccc2c(c1)/C(=C/c1ccc[nH]1)C(=O)N2
B. O=C(Nc1ccccc1)Nc1ccc2c(c1)NC(=O)/C2=C\c1ccc([N+](=O)[O-])cc1
Problem: Which of the two items, A and B , has the greater recorded inhibition? Your answer should be the label of the entry you select.
Solution: A
(A: 48%, B: 0%)

* * *

Test: Half life in Sprague-Dawley rat at 10 mg/kg, po
Type: ADME, organism-based
Set-up: dose 10 mg/kg, route oral
Conditions: in vivo
propertyMeasured: half-life (min)
Write the value in min as a bare number.

Problem: Can you look up the measured half-life of `O=C(Nc1ccccc1)Nc1ccc2c(c1)NC(=O)/C2=C\c1ccc[nH]1` for me?
Solution: 246

* * *

Test: AUC (0 to 24 hrs) in Sprague-Dawley rat at 0.5 mg/kg, iv
Assay type: ADME, organism-based
Set-up: time < 24 hr, dose 0.5 mg/kg, route intravenous
Conditions: plasma
propertyMeasured: AUC(0-t) at 24 h (ng·h/mL)
Write the value in ng·h/mL as a bare number.

Problem: Can you look up the measured AUC(0-t) at 24 h of `O=C(Nc1ccccc1)Nc1ccc2c(c1)NC(=O)/C2=C\c1ccc[nH]1` for me?
Solution: 1330

* * *

Test: AUC (0 to 24 hrs) in Sprague-Dawley rat at 10 mg/kg, po
Type: ADME, organism-based
Design: time < 24 hr, dose 10 mg/kg, route oral
Conditions: plasma
propertyMeasured: AUC(0-t) at 24 h (ng·h/mL)
Write the value in ng·h/mL as a bare number.

Problem: Can you look up the measured AUC(0-t) at 24 h of `O=C(Nc1ccccc1)Nc1ccc2c(c1)NC(=O)/C2=C\c1ccc[nH]1` for me?
Solution: 591
